The origin of these recorded values is paper PMC5138847.

Target: DrUox (zebrafish urate oxidase, uricase) (Danio rerio, UniProt Q6DG85, F216S)
Construct: full length, 298 aa; N-terminal 6xHis tag (pET28b) for wt and F216S kinetics, untagged for crystals; E. coli BL21-CodonPlus(DE3); homotetramer
Sequence (Q6DG85 1-298 F216S): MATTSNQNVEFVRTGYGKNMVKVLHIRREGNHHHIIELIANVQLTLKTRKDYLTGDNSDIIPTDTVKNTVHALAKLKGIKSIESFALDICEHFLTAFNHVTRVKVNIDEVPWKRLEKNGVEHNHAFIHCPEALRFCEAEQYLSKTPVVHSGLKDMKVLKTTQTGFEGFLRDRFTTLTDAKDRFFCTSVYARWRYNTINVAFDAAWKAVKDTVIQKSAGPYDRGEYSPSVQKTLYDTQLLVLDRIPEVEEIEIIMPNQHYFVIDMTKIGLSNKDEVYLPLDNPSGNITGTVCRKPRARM
Experiment: UV absorbance at […] nm, global fit to competitive inhibition
Conditions: read-out: Xanthine / Ki
PARAMETER_MEASURED: Ki (µM)

>  <SMILES_ENTRY>
O=c1[nH]c(=O)c2[nH]cnc2[nH]1

>  <EXPERIMENTAL_RESULT>
59.2

$$$$
